Ref: PubChem BioAssay (NCI)

# Test system: OVCAR-8 ovarian
# assay_remarks: NCI-60 one-dose screen, 48 h (100 = growth as untreated, 0 = no growth, -100 = all killed)
# test_conditions: 10 µM unless noted
# Method: Growth inhibition of the OVCAR-8 human tumor cell line is measured as a screen for anti-cancer activity. Cells are grown in 96 well plates and exposed to the test compound for 48 hours. Compounds are tested at a single concentration, which is 10^-5 M for most compounds. The reported endpoint is percent growth (GI% or GIPRCNT), where numbers from 0 - 100% represent growth inhibition, and numbers from -100% - 0 represent cell death. For example, a value of 40 represents 60% growth inhibition. […]
About 83,000 compounds went through this panel and 20% of them were active in at least one assay; those are over-represented in the sample as a whole.
Checkbox rule: growth lower than 90% = TRUE; growth not lower than 90% = FALSE.

{"compound": "Cc1nc2ccccc2n1CC1NC(=O)NC1=O (stereo not given)", "class": "FALSE"}
{"compound": "O=C(Nc1ccccc1Cl)Oc1ccc(-c2ccccc2)cc1", "class": "FALSE"}
{"compound": "COc1cc2c(cc1-c1c(C)noc1C)ncc1nc(C3CCCCC3)n(C3CCC(OC(F)F)CC3)c12 (stereo not given)", "class": "TRUE"}
{"compound": "CN(C)CC1C(=O)O[C@H]2[C@H]1CC/C(COC(=O)c1cc3ccccc3[nH]1)=C\\CC[C@@]1(C)O[C@@H]21 (stereo not given in full)", "class": "TRUE"}

### Prompt API: query returns whether the compound falls strictly under 90% in growth. Query: CCN(CCNc1ccc(C)c2sc3ccccc3c(=O)c12)CC(C)(C)O
### Response TRUE

* * *

# Test system: SK-MEL-28 melanoma
# assay_remarks: NCI-60 one-dose screen, 48 h (100 = growth as untreated, 0 = no growth, -100 = all killed)
# test_conditions: 10 µM unless noted
About 83,000 compounds went through this panel and 20% of them were active in at least one assay; those are over-represented in the sample as a whole. Calls of active or inactive are those of the source. How the source made its calls: active means growth percent below 10; inactive means the rest.
Entries and their measured growth follow.

{"compound": "O=C(CSc1nccc(Nc2ccc(S(=O)(=O)Nc3nccs3)cc2)n1)c1ccc(F)cc1", "assayed_target": "SK-MEL-28 melanoma", "measured": "106% (inactive)"}
{"compound": "COc1cc(/C=C/C(=O)c2ccc(Nc3nc(Nc4ccc(F)cc4)nc(Nc4ccc(Cl)cc4)n3)cc2)cc(OC)c1OC", "assayed_target": "SK-MEL-28 melanoma", "measured": "-32.9% (active)"}
{"compound": "COc1ccc(/C=N\\NC(=O)c2cc(-c3ccc(Br)cc3)n(-c3ccc(S(N)(=O)=O)cc3)n2)cc1", "assayed_target": "SK-MEL-28 melanoma", "measured": "47.4% (inactive)"}
{"compound": "Nc1nc(N)c2c(n1)NC(c1ccccc1)C1CCc3ccccc3C1=N2 (configuration not stated)", "assayed_target": "SK-MEL-28 melanoma", "measured": "76.4% (inactive)"}
{"compound": "COc1ccc(-c2[nH]c(=S)n(C(CC3(C)NCC(=O)N3n3c(-c4ccccc4)cc(C)nc3=S)c3ccc(OC)cc3)c(=O)c2Br)cc1 (configuration not stated)", "assayed_target": "SK-MEL-28 melanoma", "measured": "83.6% (inactive)"}

### Prompt Look up and report measured growth for this entry: Cc1ccc(NCCN(C)C)c2c(=O)c3ccccc3sc12
### Response 2.84% (active)

### Prompt // fetch growth given entry COC(=O)[C@]12CC[C@@H](C)[C@H](C)[C@@H]1C1=CC[C@@H]3[C@@]4(C)C(C=O)=C[C@@](C)(CO)[C@@H]4[C@H](O)C[C@@]3(C)[C@]1(C)CC2
### Response -34.5% (active)

### Prompt Please supply the value of reported growth for the item COC(=O)[C@]12CC[C@@H](C)[C@H](C)[C@@H]1C1=CC[C@@H]3[C@@]4(C)C(C=O)=C[C@@](C)(COC(=O)c5ccco5)C4=CC[C@@]3(C)[C@]1(C)CC2
### Response -45.5% (active)

### Prompt Item CC1=C(SCCC(=O)OC(C[Se]C2=C(C)C(=O)c3ccccc3C2=O)C(=O)NCCCCCC(=O)OCc2ccccc2)C(=O)c2ccccc2C1=O (configuration not stated) : provide growth
### Response 53.6% (inactive)

* * *

molecules and their reported growth
# Tested on: MOLT-4 leukemia
# assay_remarks: NCI-60 one-dose screen, 48 h (100 = growth as untreated, 0 = no growth, -100 = all killed)
# test_conditions: 10 µM unless noted
This is part of a sample that, as a whole, favours compounds with a hit. Of some 83,000 tested, about 20% had one in any assay.
Express your answer in %, writing the number without its unit.

These recorded examples may help you get a feel for the data.
{"molecule": "CC1=C(SCCC(=O)OC(C[Se]C2=C(C)C(=O)c3ccccc3C2=O)C(=O)NCCCCCC(=O)OCc2ccccc2)C(=O)c2ccccc2C1=O (stereo not given)", "growth / %": 10.9}
{"molecule": "COc1ccc(-c2csc(C3=C(O)CN(C(C)C)C3=N)n2)cc1OC", "growth / %": 87.2}
{"molecule": "COC(=O)c1c2c(c(C)[n+]([O-])c1C)C(=O)C(NCc1ccc(F)c(Cl)c1)=CC2=O", "growth / %": -19.2}
{"molecule": "CCC1(C2CCCC2)NC(=O)NC1=O (stereo not given)", "growth / %": 110}
{"molecule": "COc1ccccc1NC(=O)N/C(N)=N/c1nc2ccccc2s1", "growth / %": 15.4}
{"molecule": "Cc1ccc(S(=O)(=O)n2cc(CNc3ccc(N4CCOCC4=O)cc3)c3ccccc32)cc1", "growth / %": 82.7}
{"molecule": "COc1ccc(/C=C/c2c(C(=O)/C=C/c3ccc(F)cc3)c(C)nc3ccccc23)cc1", "growth / %": 5.98}
{"molecule": "COc1ccc(-c2c(N)n[nH]c2-c2ccc(Cl)cc2O)cc1OC", "growth / %": 107}
{"molecule": "O=C(CCCCCCSc1nc(-c2ccccc2)cc(-c2ccc(Cl)cc2)n1)NO", "growth / %": 1.04}
{"molecule": "O=C(/C=C/c1cccc(O)c1)c1cccc(-n2cc(-c3ccc4ccccc4c3)[nH]c2=O)c1", "growth / %": -1.37}

### Prompt Find the measured growth of C(=N\Nc1ncc(-c2cc3cc4c(cc3o2)OCO4)s1)/c1ccco1 and report it.
### Response 9.91

### Prompt Read the entry Oc1c(CN2CCCC2)cc(COCc2ccc(Br)cc2)c2cccnc12 and write its reported growth.
### Response -8.18

### Prompt State its growth for this molecule: COc1cc(/C=C/C(=O)c2ccc(Nc3nc(Nc4ccc(F)cc4)nc(Nc4ccc(Cl)cc4)n3)cc2)cc(OC)c1OC
### Response 0.996

### Prompt Report growth for CCCCCCCC/C=C\CCCCCCCCOc1ccccc1CC(=O)NCC[N+](C)(C)C
### Response 77.3

### Prompt Complete the entry with growth for Cc1ccc2nc(NC(=O)CSc3nc(-c4ccccc4)c(C#N)c(=O)n3Cc3ccccc3)sc2c1
### Response 93.8

### Prompt Fill in reported growth for this entry: COc1ccc(C(=O)/C=C/c2c(C(F)(F)F)nc3sccn23)cc1OC
### Response -16.6

### Prompt Using known records, supply growth for NS(=O)(=O)c1cnccc1Sc1ccncc1S(N)(=O)=O
### Response 86.3

### Prompt Indicate the recorded growth value for this molecule: COc1ccc2c(c1)O/C(=C\c1cccc(OCC(=O)Nc3nc4ccccc4s3)c1)C2=O
### Response 18.4

### Prompt Read off the recorded growth for CC/C=C\C[C@H](O)C/C=C1/C(=O)C=C[C@@H]1C/C=C\CCCC(=O)OC
### Response -6.76

### Prompt State its growth: COc1cccc(-c2nc3sccn3c2-c2ccnc(NCCNS(=O)(=O)c3ccc(C(F)(F)F)cc3)c2)c1
### Response 13.7

* * *

# Test system: HS 578T breast
# assay_remarks: NCI-60 one-dose screen, 48 h (100 = growth as untreated, 0 = no growth, -100 = all killed)
# test_conditions: 10 µM unless noted
This is part of a sample that, as a whole, favours compounds with a hit. Of some 83,000 tested, about 20% had one in any assay. Calls of active or inactive are those of the source. Rule for the calls: active = growth percent below 10; inactive = the rest.
In this section, each of the compounds is paired with its reported growth.

### Prompt Param request: growth | system HS 578T breast | item CCN1CCN(c2nc(C)cc(NCc3cc(Nc4ccnc5cc(Cl)ccc45)ccc3F)n2)CC1
### Response 9.27% (active)

### Prompt Determine reported growth for O=c1c2cc(F)ccc2sc2c(NCCN3CCCCC3)nc3ccccc3c12 ; test system: HS 578T breast.
### Response 56% (inactive)

### Prompt # return growth for COc1cc(/C=N/n2c(CN3CCOCC3)nc3ccccc3c2=O)cc(OC)c1OC , test system: HS 578T breast
### Response 105% (inactive)

### Prompt For HS 578T breast, give the measured growth of the entry O=C1/C(=C2/C=Nc3ccccc32)N(O)c2ccccc21
### Response 87.7% (inactive)

### Prompt Check HS 578T breast data and give growth for COc1ccc(C2=NN(C(=O)c3cc(OC)c(OC)c(OC)c3)C(c3ccc(Cl)cc3)C2)cc1OC (stereo not given) .
### Response 0.152% (active)
